Each recorded value in this set is attributed to ChEMBL document CHEMBL1961873.

Reported inhibition values follow for various compounds
# ASSAY_TARGET: Tyrosine-protein kinase receptor TYRO3 (Homo sapiens) (UniProt Q06418);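 note: reported percentages are averaged inhibition values of TYRO3 kinase activity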
# Sequence (Q06418 whole entry): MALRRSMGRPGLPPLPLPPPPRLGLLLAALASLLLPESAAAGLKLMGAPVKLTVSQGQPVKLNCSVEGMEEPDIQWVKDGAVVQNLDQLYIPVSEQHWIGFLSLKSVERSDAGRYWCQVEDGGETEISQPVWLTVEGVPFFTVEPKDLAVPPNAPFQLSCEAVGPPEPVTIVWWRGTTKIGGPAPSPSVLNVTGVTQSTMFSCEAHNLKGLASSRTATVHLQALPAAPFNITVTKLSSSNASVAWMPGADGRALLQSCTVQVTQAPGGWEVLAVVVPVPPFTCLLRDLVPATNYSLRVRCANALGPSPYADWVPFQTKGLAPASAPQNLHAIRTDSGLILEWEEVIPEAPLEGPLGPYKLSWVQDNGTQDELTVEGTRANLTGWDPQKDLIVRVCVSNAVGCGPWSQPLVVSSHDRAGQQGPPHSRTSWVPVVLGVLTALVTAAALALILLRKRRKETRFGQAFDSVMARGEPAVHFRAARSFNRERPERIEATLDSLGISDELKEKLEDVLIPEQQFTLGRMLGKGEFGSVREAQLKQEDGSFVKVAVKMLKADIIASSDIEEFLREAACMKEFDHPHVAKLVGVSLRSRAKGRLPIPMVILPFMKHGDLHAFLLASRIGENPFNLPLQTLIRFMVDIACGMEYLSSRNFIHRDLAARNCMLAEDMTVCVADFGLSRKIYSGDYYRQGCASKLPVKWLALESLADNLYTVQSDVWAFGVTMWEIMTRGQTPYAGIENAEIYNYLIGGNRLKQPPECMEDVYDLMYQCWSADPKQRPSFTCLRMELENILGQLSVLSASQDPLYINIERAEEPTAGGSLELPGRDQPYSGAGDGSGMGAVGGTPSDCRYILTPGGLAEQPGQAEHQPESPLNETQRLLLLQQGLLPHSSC
# EXPERIMENTAL_SETUP: at 0.1 µM
ASSAY_READOUT: inhibition (%)

1. CCn1c(-c2nonc2N)nc2cncc(C(=O)N3CCNCC3)c21 : 1.84
2. Cn1cc(C=C2C(=O)Nc3cccnc32)c2ccccc21 : 2.36
3. CS(=O)(=O)Nc1ccc(N/C=C2\C(=O)Nc3ccccc32)cc1 : -2.18
4. O=C1NC(=O)C(N2CCc3ccccc32)=C1c1ccc(Cl)cc1 : 3.4
5. CN1CCC(C(=O)Nc2n[nH]c3nnc(-c4ccccc4)cc23)CC1 : 2.36
6. NS(=O)(=O)c1ccc(N/N=C2\C(=O)Nc3ccc(C(=O)NCCc4c[nH]cn4)cc32)cc1 : 5.07
7. CS(=O)(=O)CCNCc1ccc(-c2ccc3ncnc(Nc4ccc(OCc5ccccc5)c(Cl)c4)c3c2)o1 : 0.02
8. COc1cc(C)c(NC(=O)CN(C)C)cc1Nc1nc(Nc2cccc(F)c2C(N)=O)c2cc[nH]c2n1 : 2.82
9. CN(C)c1cc2c(Nc3ccc4nc(Cc5ccccc5)[nH]c4c3)ncnc2cn1 : 3.2
10. COc1cc2ncn(-c3cc(O[C@H](C)c4ccccc4Cl)c(C(N)=O)s3)c2cc1OC : 7.57
